Listed here are compounds together with their documented CLlast Mean.
Assay notes: IV/PO pharmacokinetic study in dogs
Format: in vivo, male beagle dogs
Details: dog, IV
Kindly provide the numeric value in mL/min/kg only, without the unit symbol.

The cases that follow already have their CLlast Mean on record.
Molecular string: Cc1cnc(C(=O)N[C@H](Cc2ccc(-c3cc(Cl)ccc3F)cc2)C[C@@H](O)C(=O)O)o1
Value units: mL/min/kg
CLlast Mean: 4.83
--
Molecular string: COc1cc(C(=O)N[C@H](Cc2ccc(-c3cc(Cl)ccc3F)cc2)C[C@@H](O)C(=O)O)on1
Value units: mL/min/kg
CLlast Mean: 10.8
--
Molecular string: C[C@H](C[C@@H](Cc1ccc(-c2cc(Cl)ccc2F)cc1)NC(=O)c1cnco1)C(=O)O
Value units: mL/min/kg
CLlast Mean: 25.7

Please examine the following record next.
Qu. What measured CLlast Mean goes with "CCc1ncc(C(=O)N[C@H](Cc2ccc(-c3cc(Cl)ccc3F)cc2)C[C@@H](C)C(=O)O)o1" ?
Ans. 9.83

###

Listed here are molecules together with their documented bioavailability.
Assay notes: IV/PO pharmacokinetic study in rats
Type: in vivo, male Sprague-Dawley rats
Details: male, Sprague-Dawley, plasma; rat, PO vs IV AUClast
Kindly provide the numeric value in % only, without the unit symbol.

The cases that follow already have their bioavailability on record.
Molecular string: C[C@H](C[C@@H](Cc1ccc(-c2cc(Cl)ccc2F)cc1)NC(=O)c1cnco1)C(=O)O
Value units: %
Measured number: 60
//
Molecular string: Cc1cnc(C(=O)N[C@H](Cc2ccc(-c3cc(Cl)ccc3F)cc2)C[C@@H](O)C(=O)O)o1
Value units: %
Measured number: 67
//
Molecular string: CCc1ncc(C(=O)N[C@H](Cc2ccc(-c3cc(Cl)ccc3F)cc2)C[C@@H](C)C(=O)O)o1
Value units: %
Measured number: 60

Please examine the following record next.
Qu. What measured bioavailability goes with "COc1cc(C(=O)N[C@H](Cc2ccc(-c3cc(Cl)ccc3F)cc2)C[C@@H](O)C(=O)O)on1" ?
Ans. 20
